Tested on: SUDIPGXIII (diffuse intrinsic pontine glioma line)
assay overview: growth inhibition (% activity, log2 RLU normalised to DMSO / staurosporine); higher = more growth inhibition
condition description: 33 µM
attribute measured: growth inhibition (%)
Entry rule: numbers only, all in %.

Q) // query growth inhibition value for entry O=NN(CCCl)C(=O)NC1CCCCC1
A) 0.32

Q) // query growth inhibition value for entry Clc1ccc2c(c1)C(N1CCNCC1)=Nc1ccccc1O2
A) 0.741

Q) // query growth inhibition value for entry Clc1ccccc1CN1CCc2sccc2C1
A) 1.33

Q) // query growth inhibition value for entry N=C(N)NCCC[C@H](N)C(=O)O
A) -0.232

Q) // query growth inhibition value for entry COc1c2occc2cc2ccc(=O)oc12
A) -0.581

Q) // query growth inhibition value for entry CN(N=O)C(=O)N[C@H]1C(O)O[C@H](CO)[C@@H](O)[C@@H]1O (mixture of isomers)
A) 0.628

Q) // query growth inhibition value for entry O=C(O)c1cccnc1
A) -1.24

Q) // query growth inhibition value for entry COC(=O)[C@H](c1ccccc1Cl)N1CCc2sccc2C1
A) 1.29

Q) // query growth inhibition value for entry Nc1c(CC(=O)O)cccc1C(=O)c1ccccc1
A) 1.21

Q) // query growth inhibition value for entry CN(C)CCCOc1nn(Cc2ccccc2)c2ccccc12
A) 0.197

Q) // query growth inhibition value for entry CN(C)CCC(c1ccc(Cl)cc1)c1ccccn1 (racemic)
A) -0.538

Q) // query growth inhibition value for entry NCCc1ccc(O)c(O)c1
A) -1.27

Q) // query growth inhibition value for entry COc1cc(C(C)=O)ccc1OCCCN1CCC(c2noc3cc(F)ccc23)CC1
A) 4.02

Q) // query growth inhibition value for entry CNCC[C@@H](Oc1ccccc1C)c1ccccc1
A) 1.41

Q) // query growth inhibition value for entry CC(=O)O[C@H]1C[C@@H]2CC[C@@H]3[C@H](CC[C@@]4(C)[C@H]3C[C@H]([N+]3(C)CCCCC3)[C@@H]4OC(C)=O)[C@@]2(C)C[C@@H]1N1CCCCC1
A) -0.269

Q) // query growth inhibition value for entry Nc1nc(N)c2nc(-c3ccccc3)c(N)nc2n1
A) 0.714

Q) // query growth inhibition value for entry Nc1nc2c(ncn2COCCO)c(=O)[nH]1
A) 0.201

Q) // query growth inhibition value for entry CN(C)c1ccc(C(=C2C=CC(=[N+](C)C)C=C2)c2ccc(N(C)C)cc2)cc1
A) 74.4

Q) // query growth inhibition value for entry CC(C)(C)NC(=O)[C@H]1CC[C@H]2[C@@H]3CC[C@H]4NC(=O)C=C[C@]4(C)[C@H]3CC[C@]12C
A) 0.754

Q) // query growth inhibition value for entry Cc1cccc(N(C)C(=S)Oc2ccc3ccccc3c2)c1
A) 0.248

Q) // query growth inhibition value for entry CN1CCN(c2cc3c(cc2F)c(=O)c(C(=O)O)cn3-c2ccc(F)cc2)CC1
A) 0.0917

Q) // query growth inhibition value for entry CC(=O)NS(=O)(=O)c1ccc(NC(=O)c2ccccc2C(=O)O)cc1
A) -0.151

Q) // query growth inhibition value for entry NS(=O)(=O)c1cc2c(cc1Cl)N=C(CSCc1ccccc1)NS2(=O)=O
A) -0.239

====

Tested on: DIPGX29 (H3.3 K27M diffuse intrinsic pontine glioma line)
assay overview: growth inhibition (% activity, log2 RLU normalised to DMSO / staurosporine); higher = more growth inhibition
condition description: 33 µM
Consider the following compounds; for each one, report its growth inhibition.
Entry rule: numbers only, all in %.

Q) // query growth inhibition value for entry Nc1c2c(nc3ccccc13)CCCC2
A) -2.45

Q) // query growth inhibition value for entry Cc1cccc(C)c1OCC(=O)N[C@@H](Cc1ccccc1)[C@@H](O)C[C@H](Cc1ccccc1)NC(=O)[C@H](C(C)C)N1CCCNC1=O
A) -0.115

Q) // query growth inhibition value for entry N#CC[C@H](C1CCCC1)n1cc(-c2ncnc3[nH]ccc23)cn1
A) -0.711

Q) // query growth inhibition value for entry CC[C@H]1OC(=O)[C@H](C)[C@@H](O[C@H]2C[C@@](C)(OC)[C@@H](O)[C@H](C)O2)[C@H](C)[C@@H](O[C@@H]2O[C@H](C)C[C@H](N(C)C)[C@H]2O)[C@](C)(O)C[C@@H](C)[C@@H]2N[C@@H](COCCOC)O[C@H]([C@H]2C)[C@]1(C)O
A) -1.13

Q) // query growth inhibition value for entry Cc1nc2n(c(=O)c1CCN1CCC(c3noc4cc(F)ccc34)CC1)CCCC2
A) 2.78

Q) // query growth inhibition value for entry CN(C)[C@@H]1C(O)=C(C(=O)NCN2CCCC2)C(=O)[C@@]2(O)C(O)=C3C(=O)c4c(O)cccc4[C@@](C)(O)[C@H]3C[C@@H]12
A) -1.08

Q) // query growth inhibition value for entry CCN(CC)CCNC(=O)c1c(C)[nH]c(/C=C2\C(=O)Nc3ccc(F)cc32)c1C
A) 25.8
